Target: C-C chemokine receptor type 4 (Homo sapiens, UniProt P51679)
Sequence (P51679 whole entry): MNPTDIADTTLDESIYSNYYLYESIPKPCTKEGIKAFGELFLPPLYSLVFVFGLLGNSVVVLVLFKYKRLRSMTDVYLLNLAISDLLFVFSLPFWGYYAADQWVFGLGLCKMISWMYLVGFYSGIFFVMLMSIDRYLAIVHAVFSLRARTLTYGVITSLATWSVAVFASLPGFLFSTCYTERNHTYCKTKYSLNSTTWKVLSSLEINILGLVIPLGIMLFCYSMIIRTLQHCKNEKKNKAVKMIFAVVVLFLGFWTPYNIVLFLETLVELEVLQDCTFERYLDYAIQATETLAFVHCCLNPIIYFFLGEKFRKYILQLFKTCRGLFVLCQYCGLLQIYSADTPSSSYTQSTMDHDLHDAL
Assay: Antagonist activity at human CCR4 expressed in rat chem-5 cells assessed as inhibition of CCL22-induced calcium flux measured at 2.5 secs time interval for 45 secs by calcium 6 dye-based FLIPR assay
I'd appreciate it if you could supply IC50 values for the items below.
Give bare numbers, in nM.

| SMI | UNITS_SYMBOL | IC50 |
| --- | --- | --- |
| Cc1nn([C@H](C)c2ccc(Cl)cc2Cl)c2nc(N3CC([C@H]4CCCN(CCO)C4)C3)cnc12 | nM | 24 |

Consider the additional compound presented here.
Quick one: IC50 of `C[C@H](c1ccc(Cl)cc1Cl)n1nc(C#N)c2ncc(N3CC([C@H]4CCCN(CCO)C4)C3)nc21` ?
22

====

I'd appreciate it if you could supply pIC50 values for the items below.
Molecular target: C-C chemokine receptor type 4 (Homo sapiens)
Assay: Antagonist activity at human CCR4 expressed in rat chem-5 cells assessed as inhibition of CCL22-induced calcium flux measured at 2.5 secs time interval for 45 secs by calcium 6 dye-based FLIPR assay
pIC50: −log10 of the molar value.

Some solved entries appear below for comparison.
| SMI | pIC50 |
| --- | --- |
| C[C@H](c1ccc(Cl)cc1Cl)n1nc(C(=O)O)c2ncc(N3CC([C@H]4CCCN(CCO)C4)C3)nc21 | < 5.30 |
| Cc1nn([C@H](C)c2ccc(Cl)cc2Cl)c2nc(N3CC(N4CCCCC4)C3)cnc12 | < 5.30 |

Here is another compound to look at.
Data request, read-out pIC50, for `CCN1CCC(C2CN(c3cnc4c(C)nn([C@H](C)c5ccc(Cl)cc5Cl)c4n3)C2)CC1`
< 5.30
